The measurements presented in this section are drawn from patent US10689390B2.

tgt: BRD4-BD1 (Homo sapiens (Human), UniProt O60885)
test.protocol: BRD4 AlphaLISA (Perkin Elmer)
measurement.conditions: 5 nM BRD4-BD1, 12 nM biotinylated substrate, read-out: BRD4_BD1 IC50_μM
pIC50: −log10 of the molar value.
observation.type: pIC50

{"molecule": "CCNC(=O)C[C@H]1O[C@H](c2ccc(Cl)cc2)c2cc(OC)ccc2-c2cn(C)c(=O)cc21", "observation.type": "pIC50", "numeric.value": 7.92}
{"molecule": "CCOC(=O)CC1N=C(C(F)(F)F)c2cc(OC)ccc2-c2cn(C)c(=O)cc21 (racemic)", "observation.type": "pIC50", "numeric.value": 6.91}
{"molecule": "CCOC(=O)CC1N=C(c2c(F)cccc2F)c2cc(OC)ccc2-c2cn(C)c(=O)cc21 (racemic)", "observation.type": "pIC50", "numeric.value": 9.00}
{"molecule": "CCNC(=O)CC1N=C(C2CCCCC2)c2cc(OC)ccc2-c2cn(C)c(=O)cc21 (racemic)", "observation.type": "pIC50", "numeric.value": 8.70}
